Reported SC Flux values for a set of compounds
- System: luciferase
- EXPERIMENTAL_PROTOCOL: Luciferase expression after local (intramuscular or subcutaneous) administration of mRNA
- Format: in vivo
- CONDITIONS: subcutaneous, mRNA 0.01 mpk, 6 hours
Non-standard residues stand in square brackets, D forms with d. Residues, ends and D or L forms follow the SMILES beside them. *: point of attachment. Gly(N-(3-decanoyloxypropyl)) = CCCCCCCCCC(=O)OCCCNCC(=O)O; N(3-lauroyloxypropyl)Gly = CCCCCCCCCCCC(=O)OCCCNCC(=O)O; Gly(N-3-morpholinopropyl) = O=C(O)CNCCCN1CCOCC1; N(2-ethylhexyl)Gly = CCCCC(CC)CNCC(=O)O; N(CH(CH2OH)2)Gly = O=C(O)CNC(CO)CO; For = O=C*
Your answer is read as p/s, so omit the unit and give the number.

{"COMPOUND": "CCCCCCCCCC(=O)OCCCN(CC(N)=O)C(=O)CN(CCCOC(=O)CCCCCCCCC)C(=O)CN(CC(CC)CCCC)C(=O)CN(CCCOC(=O)CCCCCCCCC)C(=O)CN(CCCOC(=O)CCCCCCCCC)C(=O)CN(CC(CC)CCCC)C(=O)CNC(CO)CO (stereo not drawn) [Compound 102] (H-[N(CH(CH2OH)2)Gly][N(2-ethylhexyl)Gly][Gly(N-(3-decanoyloxypropyl))][Gly(N-(3-decanoyloxypropyl))][N(2-ethylhexyl)Gly][Gly(N-(3-decanoyloxypropyl))][Gly(N-(3-decanoyloxypropyl))]-NH2)", "TARGET_DESC": "luciferase", "UNIT_STRING": "p/s", "SC Flux": "1.76E+08"}

Moving on to the next compound.
Q: What value of SC Flux has been reported for the following compound? CCCCCCCCCCCC(=O)OCCCN(CC(=O)N(CC(=O)N(CC(=O)N(CCCOC(=O)CCCCCCCCCCC)CC(=O)N(CC(N)=O)CC(CC)CCCC)CC(CC)CCCC)CC(CC)CCCC)C(=O)CN(CC(CC)CCCC)C(=O)CN(C=O)CCCN1CCOCC1 (stereo not drawn) [Compound 64] (For-[Gly(N-3-morpholinopropyl)][N(2-ethylhexyl)Gly][N(3-lauroyloxypropyl)Gly][N(2-ethylhexyl)Gly][N(2-ethylhexyl)Gly][N(3-lauroyloxypropyl)Gly][N(2-ethylhexyl)Gly]-NH2)
Ans: 1.33E+08

---

// values below are reported % Encapsulation
- Test system: mRNA
- EXPERIMENTAL_PROTOCOL: mRNA encapsulation (modified Quant-iT RiboGreen assay)
- Format: physicochemical
- CONDITIONS: mRNA; formulation recipe R5
Non-standard residues stand in square brackets, D forms with d. Residues, ends and D or L forms follow the SMILES beside them. *: point of attachment. Gly(N-(3-decanoyloxypropyl)) = CCCCCCCCCC(=O)OCCCNCC(=O)O; N(2-decanoyloxyethyl)Gly = CCCCCCCCCC(=O)OCCNCC(=O)O; Gly(N-3-morpholinopropyl) = O=C(O)CNCCCN1CCOCC1; N(2-ethylhexyl)Gly = CCCCC(CC)CNCC(=O)O; N(CH(CH2OH)2)Gly = O=C(O)CNC(CO)CO; N(octyl)Gly = CCCCCCCCNCC(=O)O; For = O=C*
Field: value (include unit after the number)

{"MOLECULE": "CCCCCCCCCC(=O)OCCN(CC(=O)N(CCOC(=O)CCCCCCCCC)CC(=O)N(CC(=O)N(CCOC(=O)CCCCCCCCC)CC(=O)N(CCOC(=O)CCCCCCCCC)CC(=O)N(CC(N)=O)CC(CC)CCCC)CC(CC)CCCC)C(=O)CN(C=O)CCCN1CCOCC1 (centres unmarked) [Compound 76] (For-[Gly(N-3-morpholinopropyl)][N(2-decanoyloxyethyl)Gly][N(2-decanoyloxyethyl)Gly][N(2-ethylhexyl)Gly][N(2-decanoyloxyethyl)Gly][N(2-decanoyloxyethyl)Gly][N(2-ethylhexyl)Gly]-NH2)", "RESULT": "88.1%"}

Please look at the following molecule next.
Q: Param readout = % Encapsulation; param system = mRNA; param query = CCCCCCCCCC(=O)OCCCN(CC(=O)N(CC(N)=O)CC(CC)CCCC)C(=O)CN(CCCCCCCC)C(=O)CN(CC(CC)CCCC)C(=O)CN(CCCOC(=O)CCCCCCCCC)C(=O)CN(CCCCCCCC)C(=O)CNC(CO)CO (centres unmarked) [Compound 32] (H-[N(CH(CH2OH)2)Gly][N(octyl)Gly][Gly(N-(3-decanoyloxypropyl))][N(2-ethylhexyl)Gly][N(octyl)Gly][Gly(N-(3-decanoyloxypropyl))][N(2-ethylhexyl)Gly]-NH2) ; response: value
Ans: 86.0%
